Below, each entry is listed with its recorded pIC50.
- target.under.test: HCV polymerase (Hepatitis C virus genotype 1b, UniProt Q9WMX2)
pIC50: −log10 of the molar value.
readout.kind: pIC50

INSERT INTO assay_data (compound, readout_kind, numeric_readout) VALUES
  ('O=C(O)c1sc(-c2ccccc2)cc1N1C(=O)CN(S(=O)(=O)c2ccc(N3CC4CCC(C3)O4)nc2)C[C@H]1C1CCCCC1', 'pIC50', 9.00),
  ('CC(C)(C)OC(=O)N[C@H]1CCCN(c2ccc(S(=O)(=O)N3CC(=O)N(c4cc(-c5ccccc5)sc4C(=O)O)[C@H](C4CCCCC4)C3)cn2)C1 [Compound 158]', 'pIC50', 8.70),
  ('CC(C)(C)C#Cc1cc(N2C(=O)C(CCCS(C)(=O)=O)OC[C@H]2C2CCCCC2)c(C(=O)O)s1 (stereo partly drawn)', 'pIC50', 8.28),
  ('CC(C)(C)C#Cc1cc(N2C(=O)C3(CCOCC3)OC[C@H]2C2CCCCC2)c(C(=O)O)s1', 'pIC50', 8.22),
  ('O=C(O)c1sc(-c2ccccc2)cc1N1C(=O)CN(S(=O)(=O)c2ccc(-c3ccc(CN4CCOCC4)cc3)nc2)C[C@H]1C1CCCCC1', 'pIC50', 8.85),
  ('CCn1cc(S(=O)(=O)N2CC(=O)N(c3cc(-c4ccc(C)cc4)sc3C(=O)O)[C@H](C3CCCCC3)C2)cn1', 'pIC50', 8.30);

###

- target.under.test: HCV polymerase (Hepatitis C virus genotype 1b)
pIC50: −log10 of the molar value.
Decide using pIC50: a value greater than or equal to 8 is 1.0, a smaller one is 0.0.

INSERT INTO measurements (compound, category_label) VALUES
  ('Cc1ccc(-c2cc(N3C(=O)C(O)CCC3C3CCCCC3)c(C(=O)O)s2)cc1 (stereo not shown)', 0.0),
  ('COc1ccc(S(=O)(=O)N2CC(=O)N(c3cc(C#CC(C)(C)C)sc3C(=O)O)[C@H](C3CCCCC3)C2)cc1F', 1.0),
  ('C[C@@H]1CCCCN1c1ccc(S(=O)(=O)N2CC(=O)N(c3cc(-c4ccccc4)sc3C(=O)O)[C@H](C3CCCCC3)C2)cn1', 1.0),
  ('O=C(O)c1sc(-c2ccccc2)cc1N1C(=O)CN(S(=O)(=O)C2CCCCC2)CC1C1CCCCC1 (stereo not shown)', 0.0),
  ('CC(C)(C)N1CCN(c2ccc(S(=O)(=O)N3CC(=O)N(c4cc(-c5ccccc5)sc4C(=O)O)[C@H](C4CCCCC4)C3)cn2)CC1', 1.0),
  ('C[C@H](O)C[C@H]1OC[C@@H](C2CCCCC2)N(c2cc(C#CC(C)(C)C)sc2C(=O)O)C1=O', 1.0),
  ('O=C(O)c1sc(-c2ccccc2)cc1N1C(=O)CCC1C1CCCCC1 (stereo not shown)', 0.0);

###

- target.under.test: HCV polymerase (Hepatitis C virus genotype 1b, UniProt Q9WMX2)
- Construct: (His)6 (C); made in house; host or cells: XL-1 cells (E. coli, by own knowledge)
- experimental.protocol: Polymerase assay of Biological Example 1 (IC50 values of Table 3)
- Format: biochemical
- cond: IC50 values of Table 3, polymerase assay of Biological Example 1; read-out: NS5B-enzyme3
readout.kind: IC50

INSERT INTO assay_data (compound, result) VALUES
  ('O=C(O)c1sc(-c2ccc(C(F)(F)F)cc2)cc1N1C(=O)CCCC1C1CCCCC1 (stereo not shown) [Compound 117]', '739 nM'),
  ('O=C(O)c1sc(-c2ccccc2)cc1N1C(=O)CNC[C@H]1C1CCCCC1 [Compound 15]', '73.5 nM'),
  ('O=C(O)CCS(=O)(=O)N1CC(=O)N(c2cc(-c3ccccc3)sc2C(=O)O)C(C2CCCCC2)C1 (stereo not shown) [Compound 41]', '218 nM'),
  ('CC(C)(C)C#Cc1cc(N2C(=O)CCCC[C@H]2C2CCCCC2)c(C(=O)O)s1 [Compound 335]', '24 nM'),
  ('CN(C)[C@@H]1CCN(c2ccc(S(=O)(=O)N3CC(=O)N(c4cc(-c5ccccc5)sc4C(=O)O)[C@H](C4CCCCC4)C3)cn2)C1 [Compound 163]', '1 nM'),
  ('COc1cccc(S(=O)(=O)N2CC(=O)N(c3cc(-c4ccccc4)sc3C(=O)O)[C@H](C3CCCCC3)C2)c1 [Compound 107]', '< 1 nM'),
  ('Cc1nn(C)cc1S(=O)(=O)N1CC(=O)N(c2cc(C#CC(C)(C)C)sc2C(=O)O)[C@H](C2CCCCC2)C1 [Compound 260]', '8 nM');

###

- Tested on: HCV replicon I389luc-ubi-neo/NS3-3′/ET in ET (Huh-lucubineo-ET) cells
- experimental.protocol: Replicon assay (Biological Example 2), luciferase readout
- Type: cell-based
- cond: Hepatitis C virus; ET cells, luciferase activity 48 hours after compound
compounds and their reported IC50
readout.kind: IC50

INSERT INTO measurements (compound, readout_kind, result) VALUES
  ('C[C@@H]1CN(c2ccc(S(=O)(=O)N3CC(=O)N(c4cc(-c5ccccc5)sc4C(=O)O)[C@H](C4CCCCC4)C3)cn2)CCN1', 'IC50', '≤ 100 nM'),
  ('CC(C)(C)C#Cc1cc(N2C(=O)[C@@H](CCCO)OC[C@H]2C2CCCCC2)c(C(=O)O)s1 (single isomer, unassigned)', 'IC50', '≤ 100 nM'),
  ('CC(C)(C)C#Cc1cc(N2C(=O)CN(S(=O)(=O)c3ccc(F)cc3)C[C@H]2C2CCCCC2)c(C(=O)O)s1', 'IC50', '≤ 100 nM');

###

- target.under.test: HCV polymerase (Hepatitis C virus genotype 1b, UniProt Q9WMX2)
pIC50: −log10 of the molar value.
readout.kind: pIC50

INSERT INTO assay_data (compound, numeric_readout) VALUES
  ('Cn1ccc2cc(S(=O)(=O)N3CC(=O)N(c4cc(-c5ccccc5)sc4C(=O)O)C(C4CCCCC4)C3)ccc21 (centres unmarked)', 8.52),
  ('O=C(O)c1sc(-c2cccc(F)c2)cc1N1C(=O)CCCC1C1CCCCC1 (centres unmarked)', 6.73),
  ('O=C(O)c1sc(-c2ccccc2F)cc1N1C(=O)CCCC1C1CCCCC1 (centres unmarked)', 6.74),
  ('C[C@@H]1CCCN1c1ccc(S(=O)(=O)N2CC(=O)N(c3cc(-c4ccccc4)sc3C(=O)O)[C@@H](C3CCCCC3)C2)cn1', 6.58),
  ('CC(C)(C)C#Cc1cc(N2C(=O)[C@](C)(CCO)OC[C@H]2C2CCCCC2)c(C(=O)O)s1', 8.22),
  ('CC(C)S(=O)(=O)N1CC(=O)N(c2cc(-c3ccccc3)sc2C(=O)O)C(C2CCCCC2)C1 (centres unmarked)', 7.14),
  ('C[C@@H]1CCCN1c1ccc(S(=O)(=O)N2CC(=O)N(c3cc(-c4ccccc4)sc3C(=O)O)[C@H](C3CCCCC3)C2)cn1', 9.00),
  ('O=C(COc1ccccc1)N[C@@H]1CC(=O)N(c2cc(-c3ccccc3)sc2C(=O)O)[C@@H](C2CCCCC2)C1', 7.70),
  ('C[C@@H]1CN(c2ccc(S(=O)(=O)N3CC(=O)N(c4cc(-c5ccccc5)sc4C(=O)O)[C@H](C4CCCCC4)C3)cn2)C[C@H](C)N1', 8.40),
  ('CCc1ccc(S(=O)(=O)N2CC(=O)N(c3cc(C#CC(C)(C)C)sc3C(=O)O)[C@H](C3CCCCC3)C2)cc1', 9.00),
  ('Cc1ccc(S(=O)(=O)N2CC(=O)N(c3cc(C#CC(C)(C)C)sc3C(=O)O)C(C3CCCCC3)C2)cc1 (centres unmarked)', 6.01),
  ('CCN(CC)c1ccc(S(=O)(=O)N2CC(=O)N(c3cc(-c4ccccc4)sc3C(=O)O)[C@H](C3CCCCC3)C2)cn1', 8.70),
  ('CC(C)(C)C#Cc1cc(N2C(=O)C(CN3CCOCC3)OC[C@H]2C2CCCCC2)c(C(=O)O)s1 (some centres unmarked)', 8.40),
  ('Cc1ccccc1CN1CC(=O)N(c2cc(-c3ccccc3)sc2C(=O)O)[C@H](C2CCCCC2)C1', 6.48);

###

- System: HCV replicon I389luc-ubi-neo/NS3-3′/ET in ET (Huh-lucubineo-ET) cells
- experimental.protocol: Replicon assay (Biological Example 2), luciferase readout
- Format: cell-based
- cond: Hepatitis C virus; ET cells, luciferase activity 48 hours after compound
readout.kind: IC50

INSERT INTO results (molecule, target_under_test, result) VALUES
  ('O=C(O)c1ccc(S(=O)(=O)N2CC(=O)N(c3cc(-c4ccccc4)sc3C(=O)O)C(C3CCCCC3)C2)cc1 (stereo not drawn)', 'HCV replicon I389luc-ubi-neo/NS3-3′/ET in ET (Huh-lucubineo-ET) cells', '≥ 5 µM'),
  ('O=C(O)c1sc(-c2ccc(F)cc2)cc1N1C(=O)CN(S(=O)(=O)c2ccc(N3C[C@H]4C[C@@H]3CO4)nc2)C[C@H]1C1CCCCC1', 'HCV replicon I389luc-ubi-neo/NS3-3′/ET in ET (Huh-lucubineo-ET) cells', '≤ 0.1 µM'),
  ('C[C@@H]1CN(c2ccc(S(=O)(=O)N3CC(=O)N(c4cc(-c5ccc(F)cc5)sc4C(=O)O)[C@H](C4CCCCC4)C3)cn2)C[C@H](C)O1', 'HCV replicon I389luc-ubi-neo/NS3-3′/ET in ET (Huh-lucubineo-ET) cells', '≤ 0.1 µM');
